Target system: hVR1 (Homo sapiens, UniProt Q8NER1)
Construct: expressed in transfected cells; host or cells: HEK293
Sequence (Q8NER1 whole entry): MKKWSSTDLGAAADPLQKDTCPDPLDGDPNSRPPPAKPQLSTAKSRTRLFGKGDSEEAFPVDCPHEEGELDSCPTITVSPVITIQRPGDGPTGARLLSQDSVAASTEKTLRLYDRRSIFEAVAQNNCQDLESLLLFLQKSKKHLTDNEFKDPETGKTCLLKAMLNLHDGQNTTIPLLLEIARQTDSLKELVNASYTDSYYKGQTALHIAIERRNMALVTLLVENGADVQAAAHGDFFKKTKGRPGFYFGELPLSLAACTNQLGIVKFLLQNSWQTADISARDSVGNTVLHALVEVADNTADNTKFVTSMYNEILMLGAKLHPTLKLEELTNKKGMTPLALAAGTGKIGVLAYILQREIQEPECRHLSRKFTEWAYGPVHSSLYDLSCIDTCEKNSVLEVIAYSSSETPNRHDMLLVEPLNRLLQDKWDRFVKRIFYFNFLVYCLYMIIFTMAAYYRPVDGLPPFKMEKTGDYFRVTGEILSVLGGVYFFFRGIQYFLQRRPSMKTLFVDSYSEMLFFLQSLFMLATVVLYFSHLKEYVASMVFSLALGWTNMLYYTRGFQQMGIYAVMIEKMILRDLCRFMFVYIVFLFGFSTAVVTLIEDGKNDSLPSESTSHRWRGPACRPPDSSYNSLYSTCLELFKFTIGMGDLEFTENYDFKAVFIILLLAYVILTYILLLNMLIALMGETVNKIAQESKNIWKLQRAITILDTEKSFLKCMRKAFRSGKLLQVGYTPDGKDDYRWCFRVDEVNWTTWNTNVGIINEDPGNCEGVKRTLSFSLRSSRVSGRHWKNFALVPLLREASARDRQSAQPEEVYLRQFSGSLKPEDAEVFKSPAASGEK
Test summary: Human VR1 (hVR1) Functional Assay (FLIPR intracellular calcium, capsaicin challenge)
Format: cell-based
Condition info: test concentration 1 μM; capsaicin 0.030 μM; HEK293 cells expressing hVR1
Outcome measure: inhibition at 1 µM (%)

>>> value("CC(C)(O)c1ccccc1-c1ccc2[nH]c(/C=C/c3ccc(Cl)cc3)nc2c1 [Cpd 78]")
99
>>> value("NS(=O)(=O)c1ccccc1-c1ccc2[nH]c(/C=C/c3c(F)cccc3Cl)nc2c1 [Cpd 438]")
96
>>> value("NC(=O)c1ccccc1-c1ccc2[nH]c(/C=C/c3ccc(SC(F)(F)F)cc3)nc2c1 [Cpd 38]")
89
>>> value("NS(=O)(=O)c1ccccc1-c1ccc2[nH]c(CCc3ccc(C(F)(F)F)cc3)nc2c1 [Cpd 130]")
100

* * *

Target system: hVR1 (Homo sapiens)
Construct: expressed in transfected cells; host or cells: HEK293
Test summary: Human VR1 (hVR1) Functional Assay (FLIPR intracellular calcium, capsaicin challenge)
Assay type: cell-based
Condition info: test concentration 1 μM; capsaicin 0.030 μM; HEK293 cells expressing hVR1
Outcome measure: inhibition at 1 µM (%)

>>> value("CC(=O)c1ccccc1-c1ccc2[nH]c(/C=C/c3ccc(SC(F)(F)F)cc3)nc2c1")
98
>>> value("NS(=O)(=O)c1ccccc1-c1ccc2[nH]c(/C=C/c3c(F)cccc3F)nc2c1")
97
>>> value("CNS(=O)(=O)c1ccccc1-c1ccc2[nH]c(/C=C/c3ccc(C(F)(F)F)cc3)nc2c1")
100

* * *

Target system: UniProtKB Q8NER1
Test summary: Human VR1 (hVR1) Functional Assay (FLIPR intracellular calcium, capsaicin challenge)
Condition info: capsaicin 0.030 μM; HEK293 cells expressing hVR1
Consider the cut-off 10 nM. If the recorded IC50 is strictly smaller, the label is Satisfied; if not, the label is Not satisfied.

>>> category("CC(C)(O)c1ccccc1-c1ccc2[nH]c(/C=C/c3ccccc3C(F)(F)F)nc2c1")
"Not satisfied"
>>> category("NS(=O)(=O)c1cc(C(F)(F)F)ccc1-c1ccc2[nH]c(/C=C/c3ccc(C(F)(F)F)cc3)nc2c1")
"Not satisfied"
>>> category("NS(=O)(=O)c1ccccc1-c1ccc2[nH]c(/C=C/c3ccc(C(F)(F)F)cc3)nc2c1")
"Satisfied"
>>> category("NS(=O)(=O)c1ccccc1-c1ccc2[nH]c(CCc3cccc(C(F)(F)F)c3F)nc2c1")
"Not satisfied"
>>> category("CS(=O)(=O)Nc1ccccc1-c1ccc2[nH]c(/C=C/c3ccc(C(F)(F)F)cc3F)nc2c1")
"Not satisfied"
>>> category("CC(C)(O)c1ccccc1-c1ccc2[nH]c(/C=C/c3ccccc3)nc2c1")
"Satisfied"
>>> category("NS(=O)(=O)c1ccccc1-c1ccc2[nH]c(CCc3ccc(Cl)c(C(F)(F)F)c3)nc2c1")
"Satisfied"
>>> category("NS(=O)(=O)Nc1ccccc1-c1ccc2[nH]c(/C=C/c3ccc(C(F)(F)F)cc3)nc2c1")
"Not satisfied"
>>> category("CC(=O)Nc1ccccc1-c1ccc2[nH]c(/C=C/c3ccc(C(F)(F)F)cc3)nc2c1")
"Not satisfied"
>>> category("CS(=O)(=O)c1ccccc1-c1ccc2[nH]c(/C=C/c3ccc(C(F)(F)F)cc3)nc2c1")
"Satisfied"
>>> category("CC(C)(O)c1ccccc1-c1ccc2[nH]c(/C=C/c3ccc(Cl)cc3)nc2c1")
"Satisfied"
>>> category("NS(=O)(=O)NCc1ccccc1-c1ccc2[nH]c(/C=C/c3ccc(C(F)(F)F)cc3)nc2c1")
"Not satisfied"
>>> category("CNS(=O)(=O)c1ccccc1-c1ccc2[nH]c(/C=C/c3ccc(S(=O)(=O)C(F)(F)F)cc3)nc2c1")
"Not satisfied"
>>> category("CNS(=O)(=O)c1ccccc1-c1ccc2[nH]c(/C=C/c3c(F)cccc3Cl)nc2c1")
"Not satisfied"
>>> category("CS(=O)(=O)Nc1ccccc1-c1ccc2[nH]c(/C=C/c3ccc(C(F)(F)F)cc3)nc2c1")
"Satisfied"
>>> category("CS(=O)(=O)Nc1ccccc1-c1ccc2[nH]c(/C=C/c3ccc(-c4ccccc4)cc3)nc2c1")
"Not satisfied"
>>> category("COc1ccc(C2CC2c2nc3cc(-c4ccccc4C(C)(C)O)ccc3[nH]2)cc1 (centres unmarked)")
"Not satisfied"
>>> category("CNS(=O)(=O)c1ccccc1-c1ccc2[nH]c(/C=C/c3cc(F)cc(C(F)(F)F)c3)nc2c1")
"Not satisfied"
>>> category("CC(=O)c1ccc(/C=C/c2nc3cc(-c4ccccc4C(C)(C)O)ccc3[nH]2)cc1")
"Not satisfied"
>>> category("CS(=O)(=O)Nc1ccccc1-c1ccc2[nH]c(/C=C/c3ccc4ccccc4c3)nc2c1")
"Not satisfied"
>>> category("CSc1ccccc1-c1ccc2[nH]c(/C=C/c3ccc(C(F)(F)F)cc3)nc2c1")
"Not satisfied"
>>> category("NS(=O)(=O)c1ccccc1-c1ccc2[nH]c(CCc3ccc(F)c(F)c3F)nc2c1")
"Satisfied"
>>> category("NS(=O)(=O)c1ccccc1-c1ccc2[nH]c(/C=C/c3cccc(Cl)c3F)nc2c1")
"Not satisfied"
>>> category("NS(=O)(=O)c1ccccc1-c1ccc2[nH]c(/C=C/c3ccc(F)cc3)nc2c1")
"Satisfied"
>>> category("CC(C)(O)c1ccccc1-c1ccc2[nH]c(C#Cc3cccc(C(F)(F)F)c3)nc2c1")
"Satisfied"

* * *

Target system: hVR1 (Homo sapiens)
Construct: expressed in transfected cells; host or cells: HEK293
Test summary: Human VR1 (hVR1) Functional Assay (FLIPR intracellular calcium, capsaicin challenge)
Assay type: cell-based
Condition info: test concentration 1 μM; capsaicin 0.030 μM; HEK293 cells expressing hVR1
Listing: inhibition at 1 µM of selected molecules
Outcome measure: inhibition at 1 µM

>>> value("NS(=O)(=O)c1ccccc1-c1ccc2[nH]c(CCc3c(F)cccc3F)nc2c1")
"96%"
>>> value("CCOc1cccc(/C=C/c2nc3cc(-c4ccccc4S(N)(=O)=O)ccc3[nH]2)c1")
"2%"
>>> value("CS(=O)(=O)c1ccc(/C=C/c2nc3cc(-c4ccccc4S(N)(=O)=O)ccc3[nH]2)cc1")
"16%"
>>> value("NS(=O)(=O)c1ccccc1-c1ccc2[nH]c(C#Cc3cccc(C(F)(F)F)c3)nc2c1")
"100%"
>>> value("NS(=O)(=O)Nc1ccccc1-c1ccc2[nH]c(/C=C/c3ccc(C(F)(F)F)cc3)nc2c1")
"97%"
>>> value("NS(=O)(=O)c1ccccc1-c1ccc2[nH]c(CCc3ccccc3Cl)nc2c1")
"93%"
>>> value("NS(=O)(=O)c1ccc(F)cc1-c1ccc2[nH]c(/C=C/c3ccc(C(F)(F)F)cc3)nc2c1")
"40%"
>>> value("NS(=O)(=O)c1ccccc1-c1ccc2[nH]c(/C=C/c3ccc(SC(F)(F)F)cc3)nc2c1")
"99%"
>>> value("NS(=O)(=O)c1ccccc1-c1ccc2[nH]c(/C=C/c3ccc(Cl)cc3Cl)nc2c1")
"97%"
>>> value("O=S(=O)(c1ccc(/C=C/c2nc3cc(-c4ccccc4CO)ccc3[nH]2)cc1)C(F)(F)F")
"100%"
>>> value("CN(C)S(=O)(=O)c1ccccc1-c1ccc2[nH]c(/C=C/c3ccc(C(F)(F)F)cc3)nc2c1")
"97%"
>>> value("NS(=O)(=O)c1ccccc1-c1ccc2[nH]c(CCc3ccc(F)cc3F)nc2c1")
"97%"
>>> value("NC(=O)c1ccccc1-c1ccc2[nH]c(/C=C/c3ccc(OC(F)(F)F)cc3)nc2c1")
"32%"
>>> value("CNS(=O)(=O)c1ccccc1-c1ccc2[nH]c(/C=C/c3ccc(Cl)cc3S(C)(=O)=O)nc2c1")
"98%"
>>> value("NS(=O)(=O)c1ccccc1-c1ccc2[nH]c(CCc3ccc(F)c(F)c3)nc2c1")
"98%"
>>> value("CS(=O)(=O)c1cc(Cl)ccc1CCc1nc2cc(-c3ccccc3S(N)(=O)=O)ccc2[nH]1")
"23%"
>>> value("NS(=O)(=O)c1ccccc1-c1ccc2[nH]c(/C=C/c3ccccc3Br)nc2c1")
"99%"
>>> value("CC(=O)c1ccccc1-c1ccc2[nH]c(/C=C/c3ccc(S(=O)(=O)C(F)(F)F)cc3)nc2c1")
"99%"
>>> value("CS(=O)(=O)c1cc(Cl)ccc1/C=C/c1nc2cc(-c3ccccc3S(N)(=O)=O)ccc2[nH]1")
"97%"
>>> value("CC(C)(O)c1ccccc1-c1ccc2[nH]c(/C=C/c3ccccc3C(F)(F)F)nc2c1")
"100%"
>>> value("CNS(=O)(=O)c1ccccc1-c1ccc2[nH]c(/C=C/c3ccccc3Br)nc2c1")
"86%"

* * *

Target system: hVR1 (Homo sapiens)
Construct: expressed in transfected cells; host or cells: HEK293
Test summary: Human VR1 (hVR1) Functional Assay (FLIPR intracellular calcium, capsaicin challenge)
Type: cell-based
Condition info: test concentration 1 μM; capsaicin 0.030 μM; HEK293 cells expressing hVR1
Outcome measure: inhibition at 1 µM (%)

>>> value("CC(C)(O)c1ccccc1-c1ccc2[nH]c(C#Cc3ccc(C(F)(F)F)cc3)nc2c1")
99
>>> value("O=S(=O)(c1ccc(/C=C/c2nc3cc(-c4ccccc4O)ccc3[nH]2)cc1)C(F)(F)F")
90
>>> value("NS(=O)(=O)c1ccccc1-c1ccc2[nH]c(C3CC3c3ccc(C(F)(F)F)cc3)nc2c1 (stereo not drawn)")
94
>>> value("CS(=O)(=O)Nc1ccccc1-c1ccc2[nH]c(/C=C/c3cc(F)cc(C(F)(F)F)c3)nc2c1")
85
>>> value("NS(=O)(=O)c1ccccc1-c1ccc2[nH]c(/C=C/c3cc(F)cc(F)c3)nc2c1")
97
>>> value("CNS(=O)(=O)c1ccccc1-c1ccc2[nH]c(/C=C/c3cc(F)c(F)cc3F)nc2c1")
98
>>> value("CS(=O)(=O)Nc1ccccc1-c1ccc2[nH]c(/C=C/c3ccc(OC(F)F)cc3)nc2c1")
91
>>> value("CC(O)c1ccccc1-c1ccc2[nH]c(/C=C/c3ccc(S(=O)(=O)C(F)(F)F)cc3)nc2c1 (stereo not drawn)")
100
>>> value("NS(=O)(=O)c1ccccc1-c1ccc2[nH]c(C#Cc3ccc(C(F)(F)F)cc3)nc2c1")
98

These measurements were taken from patent US7951829B2.
